Tested on: LXRb homodimer (NR concentration 270 nM)
Assay: PBM binding z-score (relative to random genomic background probes); higher = stronger binding; sequences stand for … in GC…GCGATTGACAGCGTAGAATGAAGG
Output: class label from PBM binding z-score. Mapping: low = under -0.4, middle = from -0.4 up to 0.4, high = 0.4 and over

INSERT INTO measurements (chain_sequence, qualitative_label) VALUES
  ('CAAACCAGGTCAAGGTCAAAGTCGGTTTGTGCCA', 'high'),
  ('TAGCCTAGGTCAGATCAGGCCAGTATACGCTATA', 'middle'),
  ('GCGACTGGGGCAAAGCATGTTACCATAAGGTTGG', 'low');

Dear colleague, I would appreciate it if you could identify the bin for ACTAGTTGGTCAGCTGAAGTCACACACAATTCGG and reply at your convenience.
middle

Dear colleague, I would appreciate it if you could identify the bin for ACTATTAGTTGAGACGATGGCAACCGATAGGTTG and reply at your convenience.
middle

Dear colleague, I would appreciate it if you could identify the bin for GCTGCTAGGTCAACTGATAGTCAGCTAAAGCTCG and reply at your convenience.
middle

Dear colleague, I would appreciate it if you could identify the bin for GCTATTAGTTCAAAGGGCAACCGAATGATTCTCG and reply at your convenience.
middle

Dear colleague, I would appreciate it if you could identify the bin for TCGAGTAGGTTAGGGACATTCAGAATGGCGTCGA and reply at your convenience.
low

Dear colleague, I would appreciate it if you could identify the bin for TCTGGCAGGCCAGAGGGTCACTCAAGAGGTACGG and reply at your convenience.
low

Dear colleague, I would appreciate it if you could identify the bin for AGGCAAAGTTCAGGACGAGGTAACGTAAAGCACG and reply at your convenience.
middle

Dear colleague, I would appreciate it if you could identify the bin for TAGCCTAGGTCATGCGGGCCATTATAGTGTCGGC and reply at your convenience.
low

Dear colleague, I would appreciate it if you could identify the bin for CGTCCAAGGTCAATGATAGGTCAGTGAAAGCATT and reply at your convenience.
high

Dear colleague, I would appreciate it if you could identify the bin for GCATATAGGTAATACGAGGTGAAAGTCCGATTGT and reply at your convenience.
low
